Value source: ChEMBL document CHEMBL1201862

# System: 786-0
# Test details: NCI tumour cell line growth inhibition, 48 h
The source made the active and inactive calls. No stated cut-off is given here; in the data, active = GI50 up to about 1.1 µM and inactive = higher.
Labels: active, inactive

Molecule	Answer label
Cc1csc2nc3c(cnn3C)c(=S)n12	inactive
CCN(CC)CCNc1ccc2ncn3c4ccc(OC)cc4c(=O)c1c23	inactive
COC(=O)c1c(OC(C)=O)ccc2c1c1cc3ccccc3c(OC(C)=O)c1n2C	inactive
CCO/N=C(/N)c1ncn(Cc2ccccc2)c1NCC(OCC)OCC	inactive
COc1c2cc(C(C)(C)C)cc1Cc1cccc(c1OCc1cccc([N+](=O)[O-])c1)Cc1cc(C(C)(C)C)cc(c1OC)Cc1cccc(c1OCc1cccc([N+](=O)[O-])c1)Cc1cc(C(C)(C)C)cc(c1OC)Cc1cccc(c1OCc1cccc([N+](=O)[O-])c1)C2	inactive
COc1cc(-c2c3c(cc4c2OCO4)[C@@H](Nc2ccc4c(c2)Cc2cc(N[C@@H]5c6cc7c(cc6C(c6cc(OC)c(O)c(OC)c6)[C@H]6C(=O)OC[C@H]56)OCO7)ccc2-4)[C@H]2COC(=O)[C@@H]2C3)cc(OC)c1O (stereo partly drawn)	inactive
COC(=O)C1C2C=CC(C2)N1[C@@H](C)c1ccccc1 (stereo partly drawn)	inactive
NC(=O)N=C(NCc1ccccc1)NCc1ccccc1	inactive
CN(CCN(C)C(=O)CCn1ccc(=O)[nH]c1=O)C(=O)CCn1ccc(=O)[nH]c1=O	inactive
Sc1nnc(COc2ccc(Cl)cc2Cl)[nH]1	inactive
CC1OC(=O)N2CCC=CC12 (stereo not drawn)	inactive
CCOC(=O)C1=C(C)C2C3C(=O)OC(=O)C3C1(C)C1C(=O)OC(=O)C21 (stereo not drawn)	inactive
O=C(O)CCCNc1ncc2c(n1)-c1ccccc1OC2	inactive
CN(C)C(=S)N/N=C\C=N/NC(=S)N(C)C	active
COc1ccc2c(c1)/C(=C(\C(Cl)=C(Cl)Cl)[N+](=O)[O-])N2	inactive
Oc1cccc(/C=N/N=c2/[nH][nH]/c(=N/N=C/c3cccc(O)c3)c3ccccc23)c1	inactive
N#CC(c1nc2ccccc2s1)c1ncnc(Cl)c1[N+](=O)[O-] (stereo not drawn)	inactive
COc1cccc(NC(=O)/C(CS(=O)(=O)CCC(C(C)=O)C(C)=O)=N/NC(C)(C)C)c1	inactive
